Target: latrunculin B bound actin (A. castellani actin monomer) (A. castellani)
Assay: fluorescence polarisation
PROPERTY MEASURED: Kd

Please report the recorded Kd for WARFWVQVIDELRRGVRLKKSNHERT (domain or fragment, modifications not checked) [Spir first WH2 domain (SA)] .
90 to 1130 nM
